Ref: patent US11186577B2

Biological target: human Arginine Vasopressin Receptor 1a (AVPR1a) (Homo sapiens (Human))
Sequence (P37288 whole entry): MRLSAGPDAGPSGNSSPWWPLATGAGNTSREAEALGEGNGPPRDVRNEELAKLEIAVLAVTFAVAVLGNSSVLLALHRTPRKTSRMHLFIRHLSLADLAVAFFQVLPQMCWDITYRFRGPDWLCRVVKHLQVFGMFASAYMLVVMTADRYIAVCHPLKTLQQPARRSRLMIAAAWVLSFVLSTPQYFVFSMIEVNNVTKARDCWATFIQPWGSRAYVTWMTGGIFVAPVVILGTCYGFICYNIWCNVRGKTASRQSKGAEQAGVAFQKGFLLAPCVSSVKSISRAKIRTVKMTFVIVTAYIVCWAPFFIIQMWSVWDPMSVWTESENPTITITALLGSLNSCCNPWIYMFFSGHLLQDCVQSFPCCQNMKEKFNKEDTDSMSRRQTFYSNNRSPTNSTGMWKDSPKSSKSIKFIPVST
Assay: Vasopressin V1A receptor antagonist assay (AVP-evoked calcium, FLIPR, CHO-AVPR1a cells)
Assay type: cell-based
pIC50: −log10 of the molar value.
MEASUREMENT_TYPE: pIC50

Consider the reported pIC50 for these molecules:
INSERT INTO results (molecule, measurement_type, result) VALUES
  ('Cc1cncnc1N1CC2(CC(c3nnc4n3-c3ccc(Cl)cc3CN(C)C4)C2)C1 [compound 251]', 'pIC50', '6.30 to 7.00'),
  ('CN1Cc2cc(Cl)ccc2-n2c(nnc2C2CC3(C2)CN(C(=O)C2(C)CC2)C3)C1 [compound 31]', 'pIC50', '6.30 to 7.00'),
  ('Cc1nccc(N2CC3(CC(c4nnc5n4-c4ccc(Cl)cc4CN(C4CC4)C5)C3)C2)n1 [compound 270]', 'pIC50', '6.30 to 7.00');

Prompt: human Arginine Vasopressin Receptor 1a (AVPR1a) (Homo sapiens (Human)) / pIC50 / Cc1ccc(N2CC3(CC(c4nnc5n4-c4ccc(Cl)cc4CN(C)C5)C3)C2)nc1 [compound 12] : value?
Response: 6.30 to 7.00

Prompt: What do you have for CN1Cc2cc(Cl)ccc2-n2c(nnc2C2CC3(C2)CN(C(=O)C2CC2(F)F)C3)C1 (stereo not shown) [compound 124] ?
Response: 6.30 to 7.00

* * *

Assay: MDR1-MDCK effective efflux assay (Transwell, 10 μM, 1 hour), wild-type MDCK cells
Type: in vitro ADME
Details: dog, MDCK, pH 7.4, Papp AB WT
MEASUREMENT_TYPE: Papp A→B at 1 h, 10 μM

Consider the reported Papp A→B at 1 h, 10 μM for these compounds:
INSERT INTO assay_data (compound, result) VALUES
  ('CCC(=O)N1Cc2cc(Cl)ccc2-n2c(nnc2C2CC3(C2)CN(c2ncccn2)C3)C1', '10 to 20 ×10⁻⁶ cm/s'),
  ('CC1c2nnc(C3CC4(C3)CN(c3ccc(F)cn3)C4)n2-c2ccc(Cl)cc2CN1C(=O)OC1CC(F)(F)C1 (stereo not drawn)', '> 20 ×10⁻⁶ cm/s');

Prompt: Field request: Papp A→B at 1 h, 10 μM | item: `O=C(N1Cc2cc(Cl)ccc2-n2c(nnc2C2CC3(C2)CN(c2cnccn2)C3)C1)C1(F)CC1`
Response: > 20 ×10⁻⁶ cm/s

Prompt: What do you have for CC1c2nnc(C3CC4(C3)CN(c3ncccn3)C4)n2-c2ccc(Cl)cc2CN1C(=O)OC(CF)CF (stereo not drawn) ?
Response: > 20 ×10⁻⁶ cm/s

Prompt: What do you have for `O=C(C1CCC1)N1Cc2cc(Cl)ccc2-n2c(nnc2C2CC3(C2)CN(c2ccc(F)cn2)C3)C1` ?
Response: < 7 ×10⁻⁶ cm/s

* * *

Target: UniProt:P37288
Assay: Vasopressin V1A receptor antagonist assay (AVP-evoked calcium, FLIPR, CHO-AVPR1a cells)
Format: cell-based
Details: read-out: V1a IC50
IC50 reference

Consider the reported IC50 for these molecules:
INSERT INTO results (molecule, system, result) VALUES
  ('Cc1nc(N2CC3(CC(c4nnc5n4-c4ccc(Cl)cc4CN(C4CC4)C5)C3)C2)ccc1F', 'UniProt:P37288', '< 100 nM'),
  ('CC(C)N1Cc2cc(Cl)ccc2-n2c(nnc2C2CC3(C2)CN(c2ccccn2)C3)C1', 'UniProt:P37288', '< 100 nM'),
  ('CCC(=O)N1Cc2cc(Cl)ccc2-n2c(nnc2C2CC3(C2)CN(c2ncccn2)C3)C1', 'UniProt:P37288', '< 100 nM'),
  ('CC1c2nnc(C3CC4(C3)CN(c3ccc(F)cn3)C4)n2-c2ccc(Cl)cc2CN1C(=O)OC(C)(C)CF (single isomer, unassigned) [Cpd 206B]', 'UniProt:P37288', '100 to 500 nM'),
  ('CC(C)OC(=O)N1Cc2cc(Cl)ccc2-n2c(C3CC4(C3)CN(c3cccc(C#N)n3)C4)nnc2C1C (single isomer, unassigned) [Cpd 204A]', 'UniProt:P37288', '< 100 nM');

Prompt: Field request: IC50 | item: `Cc1nccnc1N1CC2(CC(c3nnc4n3-c3ccc(Cl)cc3CN(C3CC3)C4)C2)C1`
Response: < 100 nM

Prompt: What do you have for `CCOC(=O)N1Cc2cc(Cl)ccc2-n2c(nnc2C2CC3(C2)CN(c2ccc(F)cn2)C3)C1` ?
Response: < 100 nM

Prompt: What do you have for `CN1Cc2cc(Cl)ccc2-n2c(nnc2C2CC3(C2)CN(C(=O)OC2CCOCC2)C3)C1` ?
Response: > 1000 nM

Prompt: What do you have for `O=C(C(F)F)N1Cc2cc(Cl)ccc2-n2c(nnc2C2CC3(C2)CN(c2ccc(F)cn2)C3)C1` ?
Response: < 100 nM

Prompt: What do you have for CC1c2nnc(C3CC4(C3)CN(c3ncc(F)cn3)C4)n2-c2ccc(Cl)cc2CN1C(=O)OC(CF)CF (single isomer, unassigned) [Cpd 194A] ?
Response: < 100 nM

Prompt: What do you have for COC(=O)N1Cc2cc(Cl)ccc2-n2c(C3CC4(C3)CN(c3ccc(F)cn3)C4)nnc2C1C (single isomer, unassigned) [Cpd 142B] ?
Response: 500 to 1000 nM

Prompt: What do you have for `Clc1ccc2c(c1)CN(C1CC1)Cc1nnc(C3CC4(C3)CN(c3ccccn3)C4)n1-2` ?
Response: < 100 nM
